- Tested on: P12-Ichikawa
- TEST SUMMARY: cell viability relative to DMSO control; higher = less cytotoxic
- EXPERIMENTAL CONTEXT: RPMI 5 mM glucose + 10% dialyzed FBS; 48 h; 46.1 µM
Checkbox rule: cell viability lower than 70% = yes (1); cell viability not lower than 70% = no (0).

Examples with answers:
| MOLECULE | CLASS ASSIGNMENT |
| --- | --- |
| O=C(Nc1cccnc1)N1CCC(Cc2cccc(Oc3ccc(C(F)(F)F)cn3)c2)CC1 | yes (1) |
| COc1ccc(-n2c(C)c([N+](=O)[O-])c3ccc(O)cc32)cc1 | no (0) |
| CC1=CC/2=C(C=C1C)N(C[C@@H](O)[C@@H](O)[C@@H](O)CO)C/3=N/C(=O)NC(=O)C3=N2 | no (0) |
| C/C=C(\C)C(=O)N[C@@H](c1ccccc1)[C@@H](O)C(=O)O[C@H]1C[C@@]2(O)[C@@H](OC(=O)c3ccccc3)[C@@H]3[C@]4(OC(C)=O)CO[C@@H]4C[C@H](O)[C@@]3(C)C(=O)[C@H](OC(C)=O)C(=C1C)C2(C)C | yes (1) |
| OC(=O)CNC(=O)\C1=C(/O)C2=CC=CC=C2N(CC3=CC=CC=C3)C1=O | yes (1) |

Consider now this further molecule.
Quick check: cell viability of C[C@@H]1CC[C@@]2(CC[C@]3(C)\C(=C/C[C@@H]4[C@@]5(C)C[C@@H](O)[C@H](O)[C@@](C)(CO)[C@@H]5CC[C@@]34C)[C@@H]2[C@H]1C)C(O)=O under 70%?
no (0)

====

We begin with a simple list: items and their reported cell viability.
- Test system: P12-Ichikawa
- TEST SUMMARY: cell viability relative to DMSO control; higher = less cytotoxic
- EXPERIMENTAL CONTEXT: HPLM + 10% dialyzed FBS; 48 h; 0.0632 µM
Please state the figure in %; there is no need to write the unit.

Answered examples (8):
| COMPOUND | cell viability [%] |
| --- | --- |
| CN1CCN(CC1)C2=CC3=C([NH]C(=N3)C/4=C(\N)C5=C(F)C=CC=C5NC4=O)C=C2 | 88.7 |
| O=C(Nc1ccccc1)Nc1ccc(-c2ccc(C(=O)[C@@H]3CCC[C@H]3C(=O)O)cc2)cc1 | 113 |
| OC1=C(Cl)C=C(N\C2=C(\C(=O)NC2=O)C3=C(C=CC=C3)[N+]([O-])=O)C=C1 | 112 |
| Nc1ncnc2nc(-c3ccc(N4CCOCC4)nc3)cc(-c3cccc(Br)c3)c12 | 117 |
| OC[C@H]1OC(O)C[C@@H](O)[C@@H]1O (some centres undefined) | 121 |
| CC(O)(C[S+](=O)([O-])c1ccc(F)cc1)C(=O)Nc1ccc(C#N)c(C(F)(F)F)c1 (centres undefined) | 93.7 |
| CC(C)(Sc1cc(C(C)(C)C)c(O)c(C(C)(C)C)c1)Sc1cc(C(C)(C)C)c(O)c(C(C)(C)C)c1 | 94.1 |
| CC(C)[C@H](O)C(=O)N[C@@H](C)C(=O)N[C@@H]1C(=O)N(C)CCc2ccccc21 | 115 |

The compound identified as CCC(=O)O[C@@]1(CC[C@H]2[C@@H]3CCC/4=C/C(=O)CC[C@]4(C)[C@H]3CC[C@]12C)C(=O)CO registered its cell viability at 110

The compound identified as NC[C@H](O)c1ccc(O)c(O)c1 registered its cell viability at 98.8

The compound identified as COc1ccc(/C=C/C(=O)Nc2ccccc2C(=O)O)cc1OC registered its cell viability at 121

The compound identified as CC[C@H]1OC(=O)[C@H](C)[C@@H](O[C@H]2C[C@@](C)(OC)[C@@H](O)[C@H](C)O2)[C@H](C)[C@@H](O[C@@H]2O[C@H](C)C[C@H](N(C)C)[C@H]2O)[C@](C)(O)C[C@@H](C)/C(=N\OCOCCOC)[C@H](C)[C@@H](O)[C@]1(C)O registered its cell viability at 102

The compound identified as O=C(NOCC1CC1)c1ccc(F)c(F)c1Nc1ccc(I)cc1Cl registered its cell viability at 114

The compound identified as Cc1nnc(C(C)C)n1[C@@H]1C[C@H]2CC[C@@H](C1)N2CC[C@H](NC(=O)C1CCC(F)(F)CC1)c1ccccc1 registered its cell viability at 105

The compound identified as COCC(=O)NC/C=C/c1ccc2ncnc(Nc3ccc(Oc4ccc(C)nc4)c(C)c3)c2c1 registered its cell viability at 101

The compound identified as CN(CC(=O)N(Cc1ccc(C2CCCCC2)cc1)c1ccc(C(=O)O)c(O)c1)[S+](=O)([O-])c1c(F)c(F)c(F)c(F)c1F registered its cell viability at 106

The compound identified as O=C1\C=C(OC2=C(C=CC=C12)C3=CC=CC4=C3SC5=C4C=CC=C5)\N6CCOCC6 registered its cell viability at 137

The compound identified as CCOc1ccccc1N/N=C1/C(=O)N(c2nc(-c3ccccc3)cs2)N=C1C registered its cell viability at 114

The compound identified as C/C=C(\C)C(=O)N[C@@H](c1ccccc1)[C@@H](O)C(=O)O[C@H]1C[C@@]2(O)[C@@H](OC(=O)c3ccccc3)[C@@H]3[C@]4(OC(C)=O)CO[C@@H]4C[C@H](O)[C@@]3(C)C(=O)[C@H](OC(C)=O)C(=C1C)C2(C)C registered its cell viability at 22.2

The compound identified as COCCCC/C(=N\OCCN)c1ccc(C(F)(F)F)cc1 registered its cell viability at 94.9

The compound identified as CC(=O)OCC(=O)[C@@]1(O)CC[C@H]2[C@@H]3CCC/4=C/C(=O)/C=C\[C@]4(C)[C@H]3[C@@H](O)C[C@]12C registered its cell viability at 102

The compound identified as COc1cc(C[C@@H](CO)[C@H](CO)Cc2ccc(O)c(OC)c2)ccc1O registered its cell viability at 106

The compound identified as COc1cc2cc(c1Cl)N(C)C(=O)C[C@H](OC(=O)C(C)C)[C@]1(C)O[C@@H]1[C@H](C)[C@@H]1C[C@@](O)(NC(=O)O1)[C@H](OC)/C=C/C=C(\C)C2 registered its cell viability at 10.7

The compound identified as CCCCN1CCC(CNC(=O)c2c3n(c4ccccc24)CCCO3)CC1 registered its cell viability at 115
